- Tested on: M14 melanoma
- protocol-text: NCI-60 one-dose screen, 48 h (100 = growth as untreated, 0 = no growth, -100 = all killed)
- assay-context: 10 µM
About 83,000 compounds went through this panel and 20% of them were active in at least one assay; those are over-represented in the sample as a whole.
// reported growth for each item listed
Write down the numeric answer in % and omit the unit.

Consider the following illustrative entries.
{"molecule": "Nc1c(C(=O)Nc2ccccc2)sc2nc3c(cc12)C(O)CCC3 (stereo unspecified)", "growth (%)": 22.1}
{"molecule": "CCOC(=O)N1C/C(=C/c2ccc(Cl)cc2)C(=O)/C(=C/c2ccc(Cl)cc2)C1", "growth (%)": 57.1}
{"molecule": "O=C(c1cccs1)c1ccccc1Cc1ccccc1", "growth (%)": 118}
{"molecule": "c1ccc([C@H]2CN3CCSC3=N2)cc1", "growth (%)": 85.8}
{"molecule": "CCN(CC)CCSCCN(CC)CC", "growth (%)": 111}

Could you now look at the following molecule, please?
Item `Cc1ccc2oc3nc(C)c(C(=O)NCc4ccccc4)cc3c(=O)c2c1` ; assay system M14 melanoma; growth reported as 29

====

- Test system: IGROV1 ovarian
- protocol-text: NCI-60 one-dose screen, 48 h (100 = growth as untreated, 0 = no growth, -100 = all killed)
- assay-context: 10 µM
- Protocol: Growth inhibition of the IGROV1 human tumor cell line is measured as a screen for anti-cancer activity. Cells are grown in 96 well plates and exposed to the test compound for 48 hours. Compounds are tested at a single concentration, which is 10^-5 M for most compounds. The reported endpoint is percent growth (GI% or GIPRCNT), where numbers from 0 - 100% represent growth inhibition, and numbers from -100% - 0 represent cell death. For example, a value of 40 represents 60% growth inhibition. […]
The panel holds about 83,000 compounds, 20% with a hit somewhere; the sample as a whole holds those more often.
Answer Criterion not met if growth is under 30%, and Criterion met if it is 30% or more.

{"molecule": "O=C(Nc1cccc(-n2cc(-c3ccncc3)c(-c3ccc(O)c(Cl)c3)n2)c1)c1ccc(Cl)c(Cl)c1", "class": "Criterion met"}
{"molecule": "Nc1nc(N=Nc2ccc(O)cc2)cc(=O)[nH]1", "class": "Criterion met"}
{"molecule": "CCN(CC)CCSCCN(CC)CC", "class": "Criterion met"}

# check: growth of `CC(C)C[C@H](NC(=O)[C@H](Cc1cccc2ccccc12)NS(=O)(=O)c1cccc2cccnc12)B(O)O` is greater than or equal to 30% Criterion not met

Would you say `CC1=C(N2CCOCC2)C(N2CCOCC2)=C(C)C(=O)C1=O` shows growth at minimum 30%? Criterion met

Kindly determine if growth recorded for `Cn1c([N+](=O)[O-])cnc1/C=C1\Oc2ccc(Cl)cc2C1=O` is above or exactly 30%. Criterion not met

Does the reported growth for `CCCCCCN1CCN(Cc2ccc(N(CC)CC)cc2)C(=O)C1=O` fall at or above the 30% mark? Criterion met

Item CC1(O)CCC2CC3OC3(C)CCC3OC3(C)CCC1C2(C)C (stereo unspecified) with growth of 30% or above? Criterion met

Is the recorded value of growth equal to or greater than 30% for this molecule? `O=C1/C(=C/c2ccc([N+](=O)[O-])o2)Oc2ccccc21` Criterion not met

In plain terms: is recorded growth at least 30% for `COc1ccc(-c2nn(-c3cccc(NC(=O)c4cccc(C(F)(F)F)c4)c3)cc2-c2ccncc2)cc1Cl` ? Criterion met
